These entries and their values trace back to paper PMC8875489.

# Tested on: Salmonella Typhimurium TA100 strain
# EXPERIMENTAL SETUP: 1 µM; TA100; alert ≥ 2.0
Decide using Fold Increase over Baseline: a value greater than or equal to 0.7 is yes (1), a smaller one is no (0).

Solved entries:
C[Se]C(=O)c1ccc(C(=O)[Se]C)s1: no (0)
COC(=O)C[Se]C(=O)c1cc(OC)cc(OC)c1: no (0)
COc1cccc2c1C(=O)c1c(O)c3c(c(O)c1C2=O)C[C@@](O)(C(=O)CO)C[C@@H]3O[C@H]1C[C@H](N)[C@H](O)[C@H](C)O1 [DOXO, doxorubicin, reference compound]: yes (1)

Task: Decide: Fold Increase over Baseline of C[Se](=O)O [MetSeAc, methylseleninic acid, reference compound] >= 0.7?
Output: yes (1)

Task: Similarly, O=C1[Se]C(=O)c2ccccc21 [EDA-A6, benzo[c]selenophene-1,3-dione] ?
Output: yes (1)

Task: Same again, this time with COC(=O)C[Se]C(=O)c1ccccc1Cl
Output: yes (1)

Task: Please give the result for C[Se]C(=O)c1cccc(C(=O)[Se]C)n1 too.
Output: no (0)

====

# PROCEDURE DETAILS: Experimental aqueous solubility (UV spectrophotometry of saturated solutions)
# Assay type: physicochemical
# EXPERIMENTAL SETUP: water (saturated solution), 20 °C, water, thermodynamic from solid; logSm calculated based on solubility Sm (mol/L); read-out: Experimental Aqueous Solubility logSm (converted)
Please mark Y if the recorded solubility at 24 h is equal to or greater than 4000 µM, and N if it falls below.

NC(=O)C[Se]C(=O)c1ccccc1 [EDA-117, Se-carbamoylmethyl benzoselenoate]: Y

Task: Form field: solubility at 24 h at least 4000 µM? Entry: O=C1[Se]C(=O)c2ccccc21 [EDA-A6, benzo[c]selenophene-1,3-dione]
Output: N

Task: What would you report for C[Se]C(=O)c1cccc(C(=O)[Se]C)c1 ?
Output: N

Task: Further, for CC(=O)C[Se]C(=O)c1ccc(Cl)cc1 [EDA-71, Se-(2-oxopropyl) 4-chlorobenzoselenoate] ?
Output: N

Task: How about this compound: C[Se]C(=O)c1ccc(C(=O)[Se]C)cc1
Output: N

====

Measured Fold Increase over Baseline, listed per entry for reference.
# Tested on: Salmonella Typhimurium TA100 strain
# EXPERIMENTAL SETUP: 10 µM; TA100; alert ≥ 2.0
Please reply with the number alone, leaving off any unit.

// below: answered compounds
C[Se]C(=O)c1cccc(C(=O)[Se]C)n1 [EDA-119]: 0.92
C[Se]C(=O)c1ccc(C(=O)[Se]C)cc1 [EDA-109]: 0.39
COc1cc(OC)cc(C(=O)[Se]CC(=O)C(C)(C)C)c1 [EDA-74]: 0.76
COC(=O)C[Se]C(=O)Cc1ccccc1 [EDA-56]: 0.90
CC(=O)C[Se]C(=O)c1ccc(Cl)cc1 [EDA-71, Se-(2-oxopropyl) 4-chlorobenzoselenoate]: 0.89

Task: Can you look up the measured Fold Increase over Baseline of COC(=O)C[Se]C(=O)c1cc(OC)c(OC)c(OC)c1 [EDA-26] for me?
Output: 1.37

Task: # iterate: COC(=O)C[Se]C(=O)c1ccccc1 [EDA-53, methyl 2-(benzoylselanyl)acetate]
Output: 1.04

Task: And for COc1cccc2c1C(=O)c1c(O)c3c(c(O)c1C2=O)C[C@@](O)(C(=O)CO)C[C@@H]3O[C@H]1C[C@H](N)[C@H](O)[C@H](C)O1 [DOXO, doxorubicin, reference compound] ?
Output: 0.77
